Kindly state Peak % Reduction in IOP vs. Control at 0.3% for each of the entries shown.
- Test system: lasered (hypertensive) eyes of conscious cynomolgus monkeys
- MEASUREMENT DESCRIPTION: Acute IOP response in lasered (hypertensive) eyes of conscious cynomolgus monkeys
- Format: in vivo
- RECORDED CONDITIONS: compound at 0.3%, instilled in right eyes, IOP at 1, 3 and 6 hours
Just so you know, I need the unit written after the number.

Worked examples follow.
- COMPOUND: "CC(=O)Oc1ccc(C(=O)NCc2nc(-c3ccncc3)n[nH]2)c(O)c1 [Example 36]"
  REPORTED VALUE: "8.4%"
- COMPOUND: "O=C(NCc1nc(-c2ccncc2)n[nH]1)c1ccc(O)cc1O [Example 15]"
  REPORTED VALUE: "14.9%"
- COMPOUND: "O=C(NCc1nc(-c2ccncc2)c[nH]1)c1ccc(O)cc1O [Example 6]"
  REPORTED VALUE: "5.8%"
- COMPOUND: "Cc1cccc(C(=O)NCc2nc(-c3ccncc3)c[nH]2)c1O [Example 7]"
  REPORTED VALUE: "11.0%"
- COMPOUND: "CC(C)C(=O)Oc1ccc(C(=O)NCc2nc(-c3ccncc3)n[nH]2)c(O)c1 [Example 35]"
  REPORTED VALUE: "8.6%"

State, for lasered (hypertensive) eyes of conscious cynomolgus monkeys, measured Peak % Reduction in IOP vs. Control at 0.3% of the compound listed here: Cc1cccc(C(=O)NCc2nc(-c3ccncc3)n[nH]2)c1O [Example 22]
11.1%

###

- STUDY SYSTEM: recombinant N-terminal GST-tagged human Rho kinase 2 (ROCK2, amino acids 1-552) (Homo sapiens, UniProt O75116)
- Construct: ROCK2, amino acids 1-552, Invitrogen Inc., cat #PV3759; GST (N)
- Sequence (O75116 1-552): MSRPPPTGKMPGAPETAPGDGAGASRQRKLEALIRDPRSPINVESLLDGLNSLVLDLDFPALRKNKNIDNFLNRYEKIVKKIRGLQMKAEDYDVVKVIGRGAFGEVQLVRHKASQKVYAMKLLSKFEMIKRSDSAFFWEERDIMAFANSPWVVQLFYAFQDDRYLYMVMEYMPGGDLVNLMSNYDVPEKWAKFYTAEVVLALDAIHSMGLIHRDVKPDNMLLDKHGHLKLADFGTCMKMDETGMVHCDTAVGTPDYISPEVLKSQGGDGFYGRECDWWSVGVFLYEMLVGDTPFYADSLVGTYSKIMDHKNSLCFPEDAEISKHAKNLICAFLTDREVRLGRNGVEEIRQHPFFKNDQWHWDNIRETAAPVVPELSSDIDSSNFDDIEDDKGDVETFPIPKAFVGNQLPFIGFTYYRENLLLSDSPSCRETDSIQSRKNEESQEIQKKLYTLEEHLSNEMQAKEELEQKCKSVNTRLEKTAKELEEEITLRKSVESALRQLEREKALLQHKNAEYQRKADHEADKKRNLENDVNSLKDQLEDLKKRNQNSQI
- MEASUREMENT DESCRIPTION: In vitro Rho kinase assay (luciferase-based ATP consumption), ROCK2
Kindly state IC50 for each of the entries shown.

- COMPOUND: "CC(C)(C)OC(=O)NC1CCN(C(=O)Cc2nc(-c3ccncc3)n[nH]2)C1 (stereo not shown) [Example 60]"
  REPORTED VALUE: "> 5 µM"
- COMPOUND: "c1ccc2c(NCc3nc(-c4ccncc4)n[nH]3)ncnc2c1 [Example 53]"
  REPORTED VALUE: "> 5 µM"
- COMPOUND: "CC(C)(C)C(=O)Oc1ccc(C(=O)NCc2nc(-c3ccncc3)n[nH]2)c(OC(=O)C(C)(C)C)c1 [Example 37]"
  REPORTED VALUE: "> 5 µM"

I'm hoping you can list IC50 for every compound here, please.
1. COc1ccc(C(=O)NCc2nc(-c3ccncc3)n[nH]2)c(O)c1 [Example 24]
2. NC(=O)c1cc(-c2ccncc2)n[nH]1 [Example 11]
3. COc1ccc(C(=O)NCc2nc(-c3ccncc3)n[nH]2)cc1 [Example 19]
4. CN(Cc1nc(-c2ccncc2)n[nH]1)C(=O)c1cccs1 [Example 57]
5. O=C(NCc1ncc(-c2ccncc2)s1)c1cccs1 [Example 1]
6. COc1cccc(C(=O)NCc2nc(-c3c[nH]c4ncccc34)cs2)c1 [Example 74]

< 5 µM
> 5 µM
< 5 µM
> 5 µM
> 5 µM
< 5 µM

I'm hoping you can list IC50 for every compound here, please.
1. CC(=O)Oc1ccc(C(=O)NCc2nc(-c3ccncc3)n[nH]2)c(O)c1 [Example 36]
2. O=C(c1cccs1)N1CCn2nc(-c3ccncc3)nc2C1 [Example 62]
3. Cc1cccc(C(=O)NCc2nc(-c3ccncc3)n[nH]2)c1O [Example 22]
4. O=C(NCc1nnc(-c2ccnc3[nH]ccc23)o1)c1ccc(O)cc1O [Example 76]
5. O=C(NCc1nc(-c2ccncc2)n[nH]1)c1cccc2c1OCC2 [Example 43]
6. O=C(NCc1nc(-c2ccncc2)n[nH]1)c1ccc(CO)cc1 [Example 51]

1: < 5 µM; 2: > 5 µM; 3: < 5 µM; 4: < 5 µM; 5: > 5 µM; 6: < 5 µM

I'm hoping you can list IC50 for every compound here, please.
1. Cc1cccc(C(=O)NCc2nc(-c3c[nH]c4ncccc34)n[nH]2)c1O [Example 71]
2. O=C(NCc1nc(-c2ccncc2)n[nH]1)c1ccc(O)cc1 [Example 28]
3. O=C(NCc1nc(-c2c[nH]c3ncccc23)n[nH]1)c1cccs1 [Example 70]
4. O=S(=O)(NCc1nc(-c2ccncc2)n[nH]1)c1ccc(O)cc1 [Example 55]

["> 5 µM", "< 5 µM", "< 5 µM", "> 5 µM"]

###

Kindly state pIC50 for each of the entries shown.
- STUDY SYSTEM: recombinant N-terminal GST-tagged human Rho kinase 1 (ROCK1, amino acids 1-535) (Homo sapiens, UniProt Q13464)
- Construct: ROCK1, amino acids 1-535, Invitrogen Inc., cat. #PV-3691; GST (N)
- Sequence (Q13464 1-535): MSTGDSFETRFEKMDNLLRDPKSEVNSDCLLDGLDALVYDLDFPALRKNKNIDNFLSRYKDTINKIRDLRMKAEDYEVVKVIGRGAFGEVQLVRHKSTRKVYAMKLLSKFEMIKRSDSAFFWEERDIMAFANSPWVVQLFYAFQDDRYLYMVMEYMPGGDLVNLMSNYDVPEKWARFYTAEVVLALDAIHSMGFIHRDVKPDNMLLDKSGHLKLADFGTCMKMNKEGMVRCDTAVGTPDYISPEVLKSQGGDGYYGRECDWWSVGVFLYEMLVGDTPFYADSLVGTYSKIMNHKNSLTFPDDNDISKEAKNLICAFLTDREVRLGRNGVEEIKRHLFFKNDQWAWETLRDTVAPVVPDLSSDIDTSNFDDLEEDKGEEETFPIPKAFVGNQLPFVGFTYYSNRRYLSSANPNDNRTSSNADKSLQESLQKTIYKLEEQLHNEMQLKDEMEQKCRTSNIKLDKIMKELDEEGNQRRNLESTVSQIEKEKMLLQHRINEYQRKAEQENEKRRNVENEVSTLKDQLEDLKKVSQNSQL
- MEASUREMENT DESCRIPTION: In vitro Rho kinase assay (luciferase-based ATP consumption), ROCK1
pIC50: −log10 of the molar value.

Worked examples follow.
- COMPOUND: "Cc1ccc(C(=O)NCc2nc(-c3ccncc3)n[nH]2)s1 [Example 49]"
  pIC50: "> 5.30"
- COMPOUND: "O=C(NCc1nc(-c2ccncc2)n[nH]1)c1nccs1 [Example 20]"
  pIC50: "> 5.30"

I'm hoping you can list pIC50 for every compound here, please.
1. O=C(NCc1nc(-c2c[nH]c3ncccc23)cs1)c1cccs1 [Example 75]
2. O=C(NCc1nc(-c2ccncc2)n[nH]1)c1n[nH]c2ccccc12 [Example 33]
3. COc1ccc(C(=O)NCc2nc(-c3ccncc3)no2)cc1 [Example 4]
4. NC(=O)c1cc(-c2ccncc2)n[nH]1 [Example 11]
5. CC(C)(C)OC(=O)NC[C@H](NC(=O)c1ccc(O)cc1O)c1nc(-c2ccncc2)n[nH]1 [Example 79]
6. CC(=O)Oc1ccc(C(=O)NCc2nc(-c3ccncc3)n[nH]2)c(O)c1 [Example 36]
7. O=S(=O)(NCc1nc(-c2ccncc2)n[nH]1)c1ccc(OCc2ccccc2)cc1 [Example 54]
8. COc1cccc(O)c1C(=O)NCc1nc(-c2ccncc2)n[nH]1 [Example 23]

["> 5.30", "< 5.30", "< 5.30", "< 5.30", "> 5.30", "> 5.30", "< 5.30", "> 5.30"]

I'm hoping you can list pIC50 for every compound here, please.
1. CS(=O)(=O)Nc1ccccc1C(=O)NCc1nc(-c2ccncc2)n[nH]1 [Example 29]
2. Clc1ccc(SCc2nc(-c3ccncc3)n[nH]2)cc1 [Example 80]
3. Cc1cccc(C(=O)NCc2nc(-c3c[nH]c4ncccc34)n[nH]2)c1O [Example 71]
4. O=C(c1cccs1)N1CCn2nc(-c3ccncc3)nc2C1 [Example 62]

1: < 5.30; 2: > 5.30; 3: > 5.30; 4: < 5.30

###

- STUDY SYSTEM: recombinant N-terminal GST-tagged human Rho kinase 2 (ROCK2, amino acids 1-552) (Homo sapiens)
- Construct: ROCK2, amino acids 1-552, Invitrogen Inc., cat #PV3759; GST (N)
- MEASUREMENT DESCRIPTION: In vitro Rho kinase assay (luciferase-based ATP consumption), ROCK2
- Method: Rho kinase biochemical assays described below depend on firefly luciferase-based, indirect measurement of total ATP consumption by the kinase following incubation with substrate and ATP. […] After an additional 10 minute incubation at room temperature (about 22° C.), luminescence activity is measured on a Molecular Devices Analyst multi-mode plate reader or other suitable plate reader. Kinase inhibition results in less ATP consumption, and therefore increased luminescence signal. […]
Kindly state IC50 for each of the entries shown.

- COMPOUND: "O=C(NCc1nc(-c2ccncc2)co1)c1ccc(O)cc1O"
  REPORTED VALUE: "< 5 µM"
- COMPOUND: "Cc1ccsc1C(=O)NCc1nc(-c2ccncc2)n[nH]1"
  REPORTED VALUE: "< 5 µM"
- COMPOUND: "Cc1ccc(C(=O)NCc2nc(-c3ccncc3)n[nH]2)s1"
  REPORTED VALUE: "< 5 µM"

I'm hoping you can list IC50 for every compound here, please.
1. O=C(NCc1c[nH]c(-c2ccncc2)n1)c1cccs1
2. Oc1ccc(C(O)CCc2nc(-c3ccncc3)n[nH]2)cc1 (centres unmarked)

1. > 5 µM
2. > 5 µM

###

- STUDY SYSTEM: recombinant N-terminal GST-tagged human Rho kinase 1 (ROCK1, amino acids 1-535) (Homo sapiens)
- Construct: ROCK1, amino acids 1-535, Invitrogen Inc., cat. #PV-3691; GST (N)
- MEASUREMENT DESCRIPTION: In vitro Rho kinase assay (luciferase-based ATP consumption), ROCK1
Kindly state IC50 for each of the entries shown.

Worked examples follow.
- STRUCTURE SMILES STRING: "O=S(=O)(NCc1nc(-c2ccncc2)n[nH]1)c1ccc(O)cc1"
  IC50: "> 5 µM"
- STRUCTURE SMILES STRING: "c1ccc(COc2ccc(CNCc3nc(-c4ccncc4)n[nH]3)cc2)cc1"
  IC50: "> 5 µM"
- STRUCTURE SMILES STRING: "Cc1csc(C(=O)NCc2nc(-c3ccncc3)n[nH]2)c1"
  IC50: "< 5 µM"
- STRUCTURE SMILES STRING: "CN(Cc1nc(-c2ccncc2)n[nH]1)C(=O)c1cccs1"
  IC50: "> 5 µM"

Let us examine a further case.
Give the reported value of IC50 for this record: Cc1cccc(C(=O)NCc2nc(-c3ccncc3)n[nH]2)c1O
< 5 µM
